# credit: ChEMBL document CHEMBL4888484

Quick reference for pIC50 among some compounds
Tested on: Plasmodium falciparum
Experiment: Re-testing in dose-response curve in 3D7 pLDH assay, at 72h
Format: functional, organism-based
Set-up: timepoint 72 hour
Conditions: 3D7, Erythrocyte
Would you please state pIC50, meaning minus log10 of the concentration in mol/L, as a bare number?

A selection of reference data follows.
>  <compound>
Nc1c(-c2nc3ccccc3[nH]2)c2nc3ccccc3nc2n1Cc1ccccc1F

>  <assay-value>
5.68

$$$$
>  <compound>
O=C(Nc1cnc2ccccc2c1)c1ccccc1C(=O)c1ccc(F)cc1

>  <assay-value>
5.86

$$$$
>  <compound>
Cc1cc(NC(=O)C(=O)NC2CC(C)CC(C)(C)C2)n(-c2nc3c(c(=O)[nH]2)CCC3)n1 (stereo not drawn)

>  <assay-value>
6.41

$$$$

Would you mind telling me what pIC50 value was observed for Cc1nc(N)nc(C)c1C(=O)Nc1ccc(Nc2ncccn2)cc1 ?
5.84

Would you mind telling me what pIC50 value was observed for COc1ccc(CC(=O)Nc2cc(C)n(-c3cccc(Cl)c3)n2)cc1 ?
6.12

Would you mind telling me what pIC50 value was observed for CC(C)c1ccc2ncnc(N[C@H]3CCc4[nH]cnc4C3)c2c1 ?
6.27

Would you mind telling me what pIC50 value was observed for COc1ccc(-c2cc(C(=O)N[C@H]3CCN(c4ccc(=O)n(C)n4)C3)c(C)n2C)cc1 ?
6.46

Would you mind telling me what pIC50 value was observed for O=S(=O)(NC12CCCC1CNC2)c1onc(C2CC2)c1Cl (stereo not drawn) ?
4.98

* * *

Quick reference for pIC50 among some compounds
Test system: Plasmodium falciparum
Test: Hit confirmation in dose-response curve in NF54 nanoGlo assay, at 72h
Format: functional, organism-based, Erythrocyte
Design: timepoint 72 hour
Conditions: Plasmodium falciparum, NF54, Erythrocyte, 72 h
Would you please state pIC50, meaning minus log10 of the concentration in mol/L, as a bare number?

>  <compound>
CCN1CCN(c2cccc(NC(=O)c3ccc4[nH]c5ccccc5c(=O)c4c3)c2)CC1

>  <pIC50>
6.02

$$$$
>  <compound>
Cc1ccccc1C(=O)N(Cc1cccc(F)c1)c1ccc(CC(=O)NCCN2CCCCC2)cc1

>  <pIC50>
5.59

$$$$
>  <compound>
O=C(CN1CCC[C@H]1C1CCCC1)NCC1CCCCC1

>  <pIC50>
5.42

$$$$

Would you mind telling me what pIC50 value was observed for Cc1cc(OCCOCCNCCN)cc(C(C)C)c1 ?
5.33

Would you mind telling me what pIC50 value was observed for COc1ccc2[nH]c3c(c2c1)CCN(C(=O)c1ccc(C)c(C)c1)[C@@H]3c1ccccc1OC ?
5.76

* * *

Quick reference for IC50 among some compounds
Test system: Plasmodium falciparum
Test: Hit confirmation in dose-response curve in NF54 pLDH assay, at 72h
Type: functional, organism-based
Design: timepoint 72 hour
Conditions: NF54, Erythrocyte
State just the number; it will be interpreted in µM.

A selection of reference data follows.
>  <compound>
CN1CCN(C2(CNc3ccnc4ccccc34)CCCC2)CC1

>  <IC50 (µM)>
0.38

$$$$
>  <compound>
O=C1NCCCOc2cccc(c2)[C@H]2c3ccc(cc3CCN2C(=O)CCN2CCOCC2)Oc2ccc(O)c1c2

>  <IC50 (µM)>
8.13

$$$$
>  <compound>
O=C(c1ccccc1F)N(Cc1nccn1Cc1c(F)cccc1Cl)C1CC1

>  <IC50 (µM)>
6.92

$$$$
>  <compound>
c1ccc(CC2=NCCc3ccccc32)cc1

>  <IC50 (µM)>
3.02

$$$$
>  <compound>
Cc1cc(NC(=O)C(=O)NC2CC(C)CC(C)(C)C2)n(-c2nc3c(c(=O)[nH]2)CCC3)n1 (stereo unspecified)

>  <IC50 (µM)>
2.09

$$$$

Would you mind telling me what IC50 value was observed for CCc1cc(=O)[nH]c(-n2nc(C3CC3)cc2NC(=O)C2CCCCC2)n1 ?
4.07
